Kindly supply the reported Relative MIC (log10) values for the records listed here.
Tested on: A. baumannii ATCC 17978 (SEN) and A. baumannii ATCC BAA-1605 (MDR)
assay-procedure: Adaptive laboratory evolution (ALE), relative MIC of evolved lines
Assay type: cell-based, Acinetobacter baumannii
test-parameters: AB-SEN (Acinetobacter baumannii ATCC 17978), evolved line 9
Where a SMILES comes first, the peptide text is derived from it. Bridges are numbered along the chain shown (N, C = ends). [ ]: non-standard residue; d: D form. The star is where a group is joined. X1 = NC[C@@H](CC(=O)*)c1cccc(Cl)c1; X2 = CC[C@H](C)CCCCC(=O)*; Dab = NCC[C@H](N)C(=O)O; Dap = NC[C@H](N)C(=O)O

Below: 3 compounds and their reported Relative MIC (log10).
compound: CC(C)C[C@@H]1NC(=O)[C@@H](Cc2ccccc2)NC(=O)[C@H](CCN)NC(=O)[C@@H](NC(=O)[C@H](CN)NC(=O)[C@@H](NC(=O)C[C@H](CN)c2cccc(Cl)c2)[C@@H](C)O)CCNC(=O)[C@H]([C@@H](C)O)NC(=O)[C@H](CCN)NC(=O)[C@H](CCN)NC1=O [SPR206] (X1-T[Dap][Dab][Dab][dF]L[Dab][Dab]T; lactam 3-C (inferred); N-terminus assumed)
assay-target: A. baumannii ATCC 17978 (SEN) and A. baumannii ATCC BAA-1605 (MDR)
Relative MIC (log10): 3.913 log10
//
compound: CC(C)c1ccc(Cn2ccc3c4c(N)nc(NC5CC5)nc4ccc32)cc1 [SCH79797]
assay-target: A. baumannii ATCC 17978 (SEN) and A. baumannii ATCC BAA-1605 (MDR)
Relative MIC (log10): 0.301 log10
//
compound: CC[C@H](C)CCCCC(=O)N[C@@H](CCN)C(=O)N[C@H](C(=O)N[C@@H](CCN)C(=O)N[C@H]1CCNC(=O)[C@H]([C@@H](C)O)NC(=O)[C@H](CCN)NC(=O)[C@H](CCN)NC(=O)[C@H](CC(C)C)NC(=O)[C@@H](Cc2ccccc2)NC(=O)[C@H](CCN)NC1=O)[C@@H](C)O [Polymyxin B] (X2-[Dab]T[Dab][Dab][Dab][dF]L[Dab][Dab]T; lactam 4-C (inferred); N-terminus assumed)
assay-target: A. baumannii ATCC 17978 (SEN) and A. baumannii ATCC BAA-1605 (MDR)
Relative MIC (log10): 2.408 log10

Kindly review the next compound as well.
Would you kindly share the measured Relative MIC (log10) for C[C@@H](O)[C@H]1C(=O)N2C(C(=O)O)=C(S[C@H]3CC[S@@+]([O-])C3)S[C@H]12 [Sulopenem] ?
1.204 log10

###

Tested on: K. pneumoniae ATCC 10031 (SEN) and K. pneumoniae ATCC 700603 (MDR)
assay-procedure: Adaptive laboratory evolution (ALE), relative MIC of evolved lines
Assay type: cell-based, Klebsiella pneumoniae
test-parameters: Klebsiella pneumoniae ATCC 10031 (KP-SEN), evolved line 1
Where a SMILES comes first, the peptide text is derived from it. Bridges are numbered along the chain shown (N, C = ends). [ ]: non-standard residue; d: D form. The star is where a group is joined. X1 = NC[C@@H](CC(=O)*)c1cccc(Cl)c1; Dab = NCC[C@H](N)C(=O)O; Dap = NC[C@H](N)C(=O)O
measure-name: Relative MIC
Numbers only.

Below: 4 compounds and their reported Relative MIC.
compound: CC(C)c1ccc(Cn2ccc3c4c(N)nc(NC5CC5)nc4ccc32)cc1
recorded-number: 16

compound: Nc1nc(-n2cc(C(=O)O)c(=O)c3cc(F)c(N4CC(O)C4)c(Cl)c32)c(F)cc1F
recorded-number: 16384

compound: CC(C)C[C@@H]1NC(=O)[C@@H](Cc2ccccc2)NC(=O)[C@H](CCN)NC(=O)[C@@H](NC(=O)[C@H](CN)NC(=O)[C@@H](NC(=O)C[C@H](CN)c2cccc(Cl)c2)[C@@H](C)O)CCNC(=O)[C@H]([C@@H](C)O)NC(=O)[C@H](CCN)NC(=O)[C@H](CCN)NC1=O [SPR206] (X1-T[Dap][Dab][Dab][dF]L[Dab][Dab]T; lactam 3-C (inferred); N-terminus assumed)
recorded-number: 2048

compound: C[C@@H](O)[C@H]1C(=O)N2C(C(=O)O)=C(S[C@H]3CC[S@@+]([O-])C3)S[C@H]12
recorded-number: 32

Kindly review the next compound as well.
Would you kindly share the measured Relative MIC for CNC(C)C1CCC(N)C(OC2C(N)CC(N)C(OC3OCC(C)(O)C(NC)C3O)C2O)O1 (centres unmarked) ?
64
